system: L. mexicana axenic amastigotes; assay: Concentration-response EC50, L. mexicana axenic amastigotes (WT); type: cell-based, Leishmania mexicana; conditions: Leishmania mexicana, 72 h, read-out: L. mexicana EC50, axenic amastigotes, 72 h
QUANTITY: pEC50
Give bare numbers, as −log10 of the molar value.

Worked examples, 5 molecules total:
Q: What does the data say about its pEC50? Entry: CC1=CC(O)(CC(C)C2(C)CC=C3C4=CCC5C(C)(C)C(=O)CCC5(C)C4CCC32C)OC1=O (centres unmarked)
A: 6.68

Q: // query pEC50 value for entry CC1=CC(O)(CC(C)C2(C)CC=C3C4=CCC5C(C)(C)C(O)CCC5(C)C4CCC32C)OC1=O (centres unmarked)
A: 6.60

Q: What pEC50 value was documented for this molecule, C=C1C(=O)OC2/C=C(/C)CC/C=C(/C)CC(OC(=O)/C(C)=C\CO)C12 (centres unmarked) ?
A: 6.00

Q: Can you share its pEC50? I mean this molecule: `CC#CC#CCc1cccc(O)c1`
A: 6.48

Q: Please give the measured pEC50 for this molecule: C=C(CC)C(=O)OC1CC(=C)C2CC(O)C(=C)C2C2OC(=O)C(=C)C12 (centres unmarked)
A: 6.48

For each of the molecules below, state pEC50.
1. C/C(=C/C(=O)CC(C)C1CCC2(C)C3=CCC4C(C)(C)C(=O)CCC4(C)C3CCC12C)C(=O)O (centres unmarked)
2. C=C1C(=O)OC2CC(C)C3C(OC)CC(=O)C3(C)C(OC(=O)C(C)CC)C12 (centres unmarked)
3. CC1=CC(O)(CC(C)C2(C)CCC3C4=CCC5C(C)(CCC(O)C5(C)C)C4=CCC32C)OC1=O (centres unmarked)

A:
6.29
6.06
6.59
